Entries and their measured cytotoxicity at 10 µM follow.
# assay protocol: Toxicity liver stage against HepG2, at 10uM
# Assay type: cell-based
# Design: test concentration 10 uM, cell line HepG2-A16-CD81EGFP
# measurement parameters: human, HepG2-A16-CD81EGFP cells; read-out: INHIBITION
Numbers only; they are read as %.

>  <compound>
COC[C@@H]1CC[C@H]2[C@H](CCN2S(=O)(=O)Cc2ccccc2)O1

>  <units symbol>
%

>  <cytotoxicity at 10 µM>
7.43

$$$$

Bench note: what cytotoxicity at 10 µM did CC(C)C(C(=O)N1CCC2(CC1)CN(C)C(=O)O2)c1ccccc1 (stereo not drawn) show? -53.6

Bench note: what cytotoxicity at 10 µM did CC(Cn1cc(Br)cn1)C(=O)Nc1ccn(C)n1 (stereo not drawn) show? -4.49

###

Entries and their measured cytotoxicity at 10 µM follow.
# assay protocol: Toxicity liver stage against HepG2, at 10uM
# Assay type: cell-based
# Set-up: test concentration 10 uM, cell line HepG2-A16-CD81EGFP
# measurement parameters: human, HepG2-A16-CD81EGFP cells; read-out: INHIBITION
Numbers only; they are read as %.

# example entries with known answers
>  <compound>
CC[C@H]1CN(S(C)(=O)=O)CC[C@H]1CC(=O)NCCOC

>  <cytotoxicity at 10 µM / %>
2.55

$$$$
>  <compound>
Cc1nn(-c2ccccc2Cl)c(C)c1CCC(=O)O

>  <cytotoxicity at 10 µM / %>
4.68

$$$$
>  <compound>
CCc1nnc(CN(C)c2nccc(N3CCCC(O)C3)n2)o1 (stereo not given)

>  <cytotoxicity at 10 µM / %>
-4.68

$$$$
>  <compound>
CN(C)CCO[C@H]1CN(C(=O)c2ccc(C#N)cc2)[C@@H]2COC[C@H]12

>  <cytotoxicity at 10 µM / %>
0.929

$$$$
>  <compound>
Cc1ccc(C(=O)N2CCC(O)(CN3CCc4ccccc4C3)C2)s1 (stereo not given)

>  <cytotoxicity at 10 µM / %>
-1.61

$$$$

Bench note: what cytotoxicity at 10 µM did Cc1nc(C(=O)NCc2ccccn2)cc(C2CCCN2)n1 (stereo not given) show? 6.83

Bench note: what cytotoxicity at 10 µM did `COC[C@@H]1CC[C@H]2[C@H](CCN2S(=O)(=O)c2cccc(C)c2)O1` show? 3.29

Bench note: what cytotoxicity at 10 µM did `Cc1cc2nc(C(C)C)cc(N3CCN(S(N)(=O)=O)CC3)n2n1` show? -11.3

Bench note: what cytotoxicity at 10 µM did `Cc1cnn(CCNCC(=O)N2CCN(c3ccccn3)CC2)c1` show? 1.22

Bench note: what cytotoxicity at 10 µM did O=C(c1cc(-c2ccc(O)cc2)n[nH]1)N1CCCC1c1cccnc1 (stereo not given) show? -4.09

Bench note: what cytotoxicity at 10 µM did `Cc1nn(C)c2c(N3CCN(C(=O)c4ccccc4)CC3)ncnc12` show? 10.9

Bench note: what cytotoxicity at 10 µM did `CC(C)c1nnc(NCc2cc3n(n2)CCNC3)s1` show? -2.11

Bench note: what cytotoxicity at 10 µM did CCC(CO)Nc1nc(C(F)F)nc2ccccc12 (stereo not given) show? 1.26

Bench note: what cytotoxicity at 10 µM did COCCN1CCN(CC(=O)N(C)Cc2ccccc2)CC1C (stereo not given) show? -144

Bench note: what cytotoxicity at 10 µM did CCS(=O)(=O)N1CC(=O)N(CCCc2ccccc2)CC(O)C1 (stereo not given) show? -5.64

###

Entries and their measured cytotoxicity at 10 µM follow.
# assay protocol: Toxicity liver stage against HepG2, at 10uM
# Type: cell-based
# Set-up: test concentration 10 uM, cell line HepG2-A16-CD81EGFP
# measurement parameters: human, HepG2-A16-CD81EGFP cells; read-out: INHIBITION
Numbers only; they are read as %.

>  <molecule>
O=C(CSc1ccccc1)Nc1cnn(CC(=O)N2CCCO2)c1

>  <readout type>
cytotoxicity at 10 µM

>  <measured value>
-0.969

$$$$
>  <molecule>
O=C(Nc1cncc(Br)c1O)c1ccon1

>  <readout type>
cytotoxicity at 10 µM

>  <measured value>
15.4

$$$$
>  <molecule>
CC(=O)N(C)CC(=O)Nc1ccc(C)cc1OCc1ccccc1

>  <readout type>
cytotoxicity at 10 µM

>  <measured value>
2.22

$$$$
>  <molecule>
Cc1ccc(C(=O)N(C)Cc2ccc3c(c2)OCO3)c(=O)[nH]1

>  <readout type>
cytotoxicity at 10 µM

>  <measured value>
-12

$$$$

Bench note: what cytotoxicity at 10 µM did `Cc1cccc(C(C)(C)CNC(=O)CN(C)c2cnccn2)c1` show? 1.79

Bench note: what cytotoxicity at 10 µM did Cc1cnc(C(=O)NCC2Cc3ccccc3O2)cn1 (stereo unspecified) show? -0.71

Bench note: what cytotoxicity at 10 µM did `CC(C)=CCN1CCN(C(=O)c2cc(C(C)C)on2)[C@H]2CS(=O)(=O)C[C@H]21` show? 3.54

Bench note: what cytotoxicity at 10 µM did `CSCC[C@H](NC(C)=O)c1nc(CCc2ccccc2)n[nH]1` show? 5.08

Bench note: what cytotoxicity at 10 µM did `COCCN1CC[C@@H](O)[C@@H]1Cc1ccccc1` show? 3.67

Bench note: what cytotoxicity at 10 µM did `CCOCC(=O)N1CCCn2c(CN3CCOCC3)nnc2C1` show? -132

Bench note: what cytotoxicity at 10 µM did `CCOCC1CCN(C(=O)c2sc(C)cc2OC(F)F)CC1` show? 7.95

Bench note: what cytotoxicity at 10 µM did Cc1cnn(CC2CN(Cc3cccc(OCC(N)=O)c3)CCO2)c1 (stereo unspecified) show? -7.18

Bench note: what cytotoxicity at 10 µM did `Cc1cccc(-c2nc(CN3CCc4cnc(C)nc4C3)no2)c1` show? -8.42

###

# assay protocol: Toxicity liver stage against HepG2, at 10uM
# Type: cell-based
# Parameters: test concentration 10 uM, cell line HepG2-A16-CD81EGFP
# measurement parameters: human, HepG2-A16-CD81EGFP cells; read-out: INHIBITION
Entries and their measured cytotoxicity at 10 µM follow.
Numbers only; they are read as %.

>  <molecule>
Cc1cc(NCCO)nc(-c2ccccc2O)n1

>  <cytotoxicity at 10 µM / %>
14.1

$$$$
>  <molecule>
COc1c(C(=O)NCC2CCCO2)nnn1Cc1ccccc1 (stereo not given)

>  <cytotoxicity at 10 µM / %>
7.47

$$$$
>  <molecule>
CCC(C)(C)n1nnnc1C(c1cccs1)N1CCc2ccccc2C1 (stereo not given)

>  <cytotoxicity at 10 µM / %>
0.237

$$$$

Bench note: what cytotoxicity at 10 µM did `Cc1csc(CNC(=O)N(C)Cc2cnn(C)c2)n1` show? -1.57

Bench note: what cytotoxicity at 10 µM did `COCC1CCN(C(=O)c2cn(Cc3ccccc3F)nn2)CC1` show? 1.89

###

# assay protocol: Toxicity liver stage against HepG2, at 10uM
# Format: cell-based
# Parameters: test concentration 10 uM, cell line HepG2-A16-CD81EGFP
# measurement parameters: human, HepG2-A16-CD81EGFP cells; read-out: INHIBITION
Entries and their measured cytotoxicity at 10 µM follow.
Output should be the measured figure followed by the unit it is expressed in.

>  <compound>
O=C(Nc1ccccc1)NC1CCN(C2CCOC2)CC1 (configuration not stated)

>  <cytotoxicity at 10 µM>
7.76%

$$$$
>  <compound>
Cc1ccccc1N1CCCN(C(=O)CCc2ccncc2)CC1

>  <cytotoxicity at 10 µM>
-9.88%

$$$$
>  <compound>
Cc1noc(C)c1CN1CCn2c(CN3CCN(C)CC3)cnc2C1

>  <cytotoxicity at 10 µM>
8.98%

$$$$
>  <compound>
CC(C)N1CCOC(CC(=O)N2CCCN(Cc3ccncc3)CC2)C1 (configuration not stated)

>  <cytotoxicity at 10 µM>
-7.49%

$$$$
>  <compound>
CN(CCOCC1CC1)C(=O)Nc1ccc([S+](C)[O-])cc1 (configuration not stated)

>  <cytotoxicity at 10 µM>
19.4%

$$$$

Bench note: what cytotoxicity at 10 µM did CN(C)CCOCC1CN(Cc2cccs2)Cc2ccnn2C1 (configuration not stated) show? -0.903%

Bench note: what cytotoxicity at 10 µM did `O=C1CCCN1Cc1ncn2c1CN(C(=O)c1cccc(F)c1)CCC2` show? -12.1%

###

# assay protocol: Toxicity liver stage against HepG2, at 10uM
# Assay type: cell-based
# Set-up: test concentration 10 uM, cell line HepG2-A16-CD81EGFP
# measurement parameters: human, HepG2-A16-CD81EGFP cells; read-out: INHIBITION
Class t: cytotoxicity at 10 µM at least -10%. Class f: cytotoxicity at 10 µM below -10%.

>  <compound>
O=C(NC1CC1)[C@H]1C[C@H]2OCC[C@H]2N(Cc2ccc(F)cc2)C1

>  <class name>
t

$$$$

Test whether the compound NC(=O)NC(=O)CCN1CCCC1c1cccc2c1OCCO2 (stereo unspecified) records cytotoxicity at 10 µM of -10% or higher. t

Test whether the compound CN1CCN(CCC(F)(F)C(F)F)CC12CCNC(=O)CC2 (stereo unspecified) records cytotoxicity at 10 µM of -10% or higher. f

Test whether the compound c1ccc(-c2nnc(C3CCCN(CC4CCCCC4)C3)o2)nc1 (stereo unspecified) records cytotoxicity at 10 µM of -10% or higher. f

Test whether the compound `COc1ccc(CC(=O)N2CCC(c3n[nH]c(C4CC4)n3)CC2)cc1` records cytotoxicity at 10 µM of -10% or higher. f

Test whether the compound `COc1ccc(OCCNC(=O)CN(C)Cc2nnc(C)n2C)cc1` records cytotoxicity at 10 µM of -10% or higher. f

Test whether the compound `COC(=O)CCC(=O)Nc1ccc(Br)c(C)n1` records cytotoxicity at 10 µM of -10% or higher. t

Test whether the compound `COc1cccc(CN2C[C@@H](F)[C@@H](OCc3nc4cnccc4[nH]3)C2)c1` records cytotoxicity at 10 µM of -10% or higher. t

Test whether the compound Cc1n[nH]c(C2CN(C(=O)c3cc(Cl)c[nH]3)CCO2)n1 (stereo unspecified) records cytotoxicity at 10 µM of -10% or higher. t

Test whether the compound `Cc1ccsc1-c1nnc(C2CCN(Cc3ccc(F)cc3)CC2)o1` records cytotoxicity at 10 µM of -10% or higher. t

Value source: ChEMBL document CHEMBL4513216
